Source of measurements: ChEMBL document CHEMBL1287756

- assay.info: Metabolic stability in monkey liver microsomes assessed as compound remaining after 30 mins by LC-MS/MS analysis
- Assay type: ADME, Macaca mulatta, Microsome
- assay.conditions: rhesus monkey, read-out: Stability
measure.name: remaining at 0.5 h

Problem: Supply measured remaining at 0.5 h of CC1(C)NC(=S)N(c2ccc(C#N)c(C(F)(F)F)c2)C1=O in your reply.
Result: < 0.001%

Problem: Supply measured remaining at 0.5 h of CC1(C)NC(=S)N(c2ccc(C#N)c(Cl)c2)C1=O in your reply.
Result: 0.027%

---

- assay.info: Membrane permeability by PAMPA assay
- Type: ADME
- assay.conditions: read-out: permeability
measure.name: Papp (×10⁻⁶ cm/s)
Express it in ×10⁻⁶ cm/s; write the number only.

Field: example entries. Status: answers known.
CC1(C)C(=O)N(c2ccc(C#N)c(Cl)c2)C(=S)N1c1cncc(S(N)(=O)=O)c1 | 13
CC1(C)C(=O)N(c2ccc(C#N)c(C(F)(F)F)c2)C(=S)N1c1cccc(S(N)(=O)=O)n1 | 14
CC1(C)C(=O)N(c2ccc(C#N)c(Cl)c2)C(=S)N1CCCS(N)(=O)=O | 25

Let's switch to this compound now.
Problem: Supply measured Papp of CC1(C)C(=O)N(c2ccc(C#N)c(C(F)(F)F)c2)C(=S)N1c1cccc(S(N)(=O)=O)c1 in your reply.
Result: 8.1
